B1: EIF5 (parent)
chain: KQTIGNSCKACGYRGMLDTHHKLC

# Variants of: B1
# test name: protein stability index of a GFP-peptide fusion (GPS, HEK-293T) (PSI 1-6); higher = more stable;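 also: lentivirally expressed fusions sorted by FACS into six bins by GFP to DsRed ratio, PSI derived from sequencing read proportions per bin multiplied by bin number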
# condition notes: c terminus: a fixed tail appended
metric name: protein stability index

Example cases with answers are listed next.
{"mutant code": "N6P", "protein stability index": 3.12}
{"mutant code": "Y13T", "protein stability index": 3.19}
{"mutant code": "A10N", "protein stability index": 2.85}
{"mutant code": "A10E", "protein stability index": 4.16}
{"mutant code": "C11A", "protein stability index": 2.2}
{"mutant code": "H20D", "protein stability index": 3.64}
{"mutant code": "L17G", "protein stability index": 3.77}
{"mutant code": "Q2V", "protein stability index": 3}
{"mutant code": "L17K", "protein stability index": 3.44}
{"mutant code": "K9W", "protein stability index": 2.89}

So for K1A , the logged protein stability index turned out to be 2.98

So for G15R , the logged protein stability index turned out to be 2.72

So for T19R , the logged protein stability index turned out to be 2.79

So for Y13G , the logged protein stability index turned out to be 2.75

So for G5E , the logged protein stability index turned out to be 4.09

So for T3E , the logged protein stability index turned out to be 2.99

So for H21P , the logged protein stability index turned out to be 3.17

So for M16P , the logged protein stability index turned out to be 4.45
